Item-by-item account of EC50
# TARGET_ENTITY: T1, human ASGR-1 (wild type) (human, UniProt P07306 1-291)
# T1 construct: also called wt ASGR1; huASGR-1
# T1 sequence: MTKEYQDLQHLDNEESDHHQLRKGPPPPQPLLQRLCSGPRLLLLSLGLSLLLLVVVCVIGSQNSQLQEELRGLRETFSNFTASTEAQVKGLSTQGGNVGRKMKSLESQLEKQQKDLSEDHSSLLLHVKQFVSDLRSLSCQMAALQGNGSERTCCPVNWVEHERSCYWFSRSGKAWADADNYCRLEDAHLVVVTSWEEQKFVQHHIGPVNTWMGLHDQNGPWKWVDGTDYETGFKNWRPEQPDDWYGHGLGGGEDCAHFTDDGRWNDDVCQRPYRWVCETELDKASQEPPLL
# EXPERIMENT_SUMMARY: flow cytometry, CHO-S:huASGR-1 cells, 11-point titration
Write the answer as a number in nM, unit excluded.

191G1 (antibody, V domains shown, mAb) VH: QVQLVESGGGVVQPGRSLRLSCAASGFTFSSYGMHWVRQAPGKGLEWVAVIWYDGSNEHYADSVKGRFTISRDNSKNTLYLQMNSLRAEDTAVYYCARDRGVGYYGLDVWGQGTTVTVSS VL: DIQMTQSPSSLSASVGDRVTITCRASQGISNYLAWFQQKPGKAPKSLIYAASSLQSGVPSKFSGSGSGTDFTLTISSLQPEDFATYYCQHYLTYPLTFGGGTKVEIK: 0.16
4H6 (antibody, V domains shown, mAb) VH: QVQLVQSGAEVKKPGASVKVSCKASGYTFTDYYLHWVRQAPGQGLEWMGWIHPNSGGTNYAQKFQGRVTMTRDTSISTAYMGLSSLRSDDTAVYYCARDGTSSFDYWGQGTLVTVSS VL: DIQMTQSPSSVSASVGDRVTITCRASQGISRWLAWYQQKPGKAPKLLIYGASSLQSGVPSRFSGSGSGTDFTLTISSLQPEDFAIYYCQQANSFPFTFGPGTKVDIK: 1.7
4B1 (antibody, V domains shown, mAb) VH: QVQLQESGPGLVKPSETLSLTCSVSGDSISSYSWSWIRQPAGKGLEWIGRIYTSGSTNYIPSLKSRITMSVDTSKKQFSLKLSSVTAADTAVYYCARDLKSSGCLFFDYWGQGTLVTVSS VL: DIQMTQSPSSLSASVGDRVTITCRASHTIRTYLNWYQQKPGKAPKLLIYAASSLQSGVPSRINGSGSGTDFTLTITNLQPEDFATYYCQQSYNISFTFGPGTKVDIK: 4.1
194A4 (antibody, V domains shown, mAb) VH: QVQLVQSGTEVKKPGASLKVSCKASGYTFTVYYLNWVRQAPGQGLEWMGWINPNSGGTNYAQKFQGRVTMTRDTSISTAYMELSRLRSDDTAVYYCARGYDILTGWGQGTLVTVSS VL: EIVLTQSPGTLSLSPGERATLSCRASRGVSNIYLAWYQQKPGQAPRLLIYGASNRATGIPDRFSGSGSGTDFTLTISRLEPEDFAVYYCQHNDYSMFTFGPGTKVDIK: 25

[ask] Let me know recorded EC50 for 25A4 (antibody, V domains shown, mAb) VH: QVLLVQSGAEVKRPGASVKVSCKASGYTFTNYDINWVRQATGQGLEWMGWMYPNSGNTGYAQKFQGRVTMTRNTSISTAYMELSSLRSEDTAVYYCASSSGWYYFDYWGQGTLVTVSS VL: DIVMTQFPDSLAVSLGERATIKCKSSQSVLYSSHNNNYLAWYQQKPGQPPKLLLYWASTRESGVPDRFSGSGSGTEFTLTISSLEAEDVAVYYCQQYYSTPPTFGQGTKVEIK , thanks.
[reply] 1.6
